List of growth values.
Test system: RPMI-8226 leukemia
Test: NCI-60 one-dose screen, 48 h (100 = growth as untreated, 0 = no growth, -100 = all killed)
Conditions: 10 µM unless noted
Compounds without any hit were thinned out: in the full panel of roughly 83,000, 20% have a hit.
measured_property: growth (%)

compound	measured_on	observed
CNC(=O)c1cc(Oc2ccc3c(c2)sc2nc(-c4cc(C(F)(F)F)cc(C(F)(F)F)c4)cn23)ccn1	RPMI-8226 leukemia	50.1
C=C1C(=O)O[C@H]2[C@H]1CC/C(COC(=O)/C=C\C(=O)NCc1ccc(Cn3c(=O)sn(CCCCl)c3=O)cc1)=C\CC[C@@]1(C)O[C@@H]21	RPMI-8226 leukemia	44.9
Cc1cc(=O)n(C(=S)Nc2ccc(Cl)cc2)c2cc(O)ccc12	RPMI-8226 leukemia	113
COc1cc2c(c(OC)c1OC)CCC(c1cccc(C(=O)Nc3ccc(Br)cc3)c1)O2 (stereo not given)	RPMI-8226 leukemia	40.5
C[C@@H]1NC(=O)[C@H](Cc2ccccc2)N(Cc2cccnc2)C1=O	RPMI-8226 leukemia	105
COc1cc(/C=N/NC(=O)c2ccc(-n3cc(-c4ccccc4)nn3)cc2)cc(OC)c1OC	RPMI-8226 leukemia	24
Nc1cccc(-c2ccc(COc3ccc(CC4SC(=O)NC4=O)cc3)cc2)c1 (stereo not given)	RPMI-8226 leukemia	53.8
O=CCCCOCc1ccccc1	RPMI-8226 leukemia	100
Cc1ccc2cnc(N)c(C#Cc3cc(C(=O)Nc4ccc(CN5CCN(C)CC5)c(C(F)(F)F)c4)cnc3C)c2c1	RPMI-8226 leukemia	-40.6
C/C(Cc1ccc(Cl)cc1)=C(\c1ccc(OCCN2CCCCCC2)cc1)c1ccc(OC(=O)c2ccccc2)cc1	RPMI-8226 leukemia	-24.6

---

System: U251 CNS
Experiment: NCI-60 one-dose screen, 48 h (100 = growth as untreated, 0 = no growth, -100 = all killed)
Conditions: 10 µM unless noted
About 83,000 compounds went through this panel and 20% of them were active in at least one assay; those are over-represented in the sample as a whole. Active and inactive are the calls of the source. The calls were made as follows: active = growth percent below 10; inactive = the rest.
Known growth of a selection of compounds
measured_property: growth

compound	observed
Fc1ccc2[nH]cc(-c3nc(-c4c[nH]c5c(Cl)nccc45)cs3)c2c1	13.8% (inactive)
CCCCC#Cc1c(I)n(C2OC(CO[Si](C)(C)C(C)(C)C)C3OC(C)(C)OC32)c(=O)n(C(=O)c2ccccc2)c1=O (stereo unspecified)	-33.2% (active)
O=C(Cn1nc(-c2cccc3ccccc23)ccc1=O)NCc1cccc(Cl)c1	35% [50 µM] (inactive)
COc1ccc(C2CC(n3ccnc3)c3cc(OC)c(OC)c(OC)c32)cc1O (stereo unspecified)	80.4% (inactive)
COc1c2c(cc3c1C(=O)N[C@@H]1[C@@H](O)[C@@H](O)[C@H](O)C[C@@H]31)OCCO2	100% (inactive)
CC(=O)O[C@H]1CC[C@]2(C)[C@H]3CC=C4[C@@H]5CC(C)(C)CC[C@]5(C(=O)N5CCN(CCC#N)CC5)CC[C@@]4(C)[C@]3(C)CC[C@H]2C1(C)C	12.4% (inactive)
N#Cc1c(-c2ccccc2)cc(-c2ccccc2)n(CCCCC(=O)NO)c1=O	29.1% (inactive)
N#C/C(=C\c1ccc(-c2cccc(Cl)c2)o1)C(=O)Nc1ncc(Cc2ccc(Cl)cc2)s1	16.9% (inactive)
CCOC(=O)C1=C(c2ccccc2)N=C2N(c3ccccc3)N=C(C(C)=O)N2C1c1ccc(F)cc1 (stereo unspecified)	103% (inactive)
COc1ccc2c(c1)c(-c1nc(-c3ccc4ccccc4c3)cs1)cn2C	91% (inactive)
OC1(c2ccccc2)c2ccccc2N(c2ccccc2)c2ccc(Cl)cc21 (stereo unspecified)	-87.9% (active)
O=C(NCCNC(c1ccccc1)C(NCCNC(=O)c1ccccc1)c1ccccc1)c1ccccc1 (stereo unspecified)	74.7% (inactive)
CC(C)(C)c1ccc(S(=O)(=O)Oc2ccc(-c3sc4cc(OS(=O)(=O)c5ccc(C(C)(C)C)cc5)ccc4c3C(=O)c3ccc(OCCN4CCCCC4)cc3)cc2)cc1	103% (inactive)
COc1cccc(CNc2c3ccccc3nc3ccccc23)c1OC	34.5% (inactive)
COc1cc(OC)c2c(=O)c3c(CC=C(C)C)cc(OC)c(O)c3oc2c1	85.1% (inactive)
COc1cc(-c2cc(-c3ccc(Nc4nc(Nc5ccc(Cl)cc5)nc(Nc5ccc(Cl)cc5)n4)cc3)no2)cc(OC)c1OC	73.4% (inactive)
O=C(/C=C/C12c3ccccc3C(c3ccccc31)C1C(=O)NC(=O)C12)c1ccco1 (stereo unspecified)	15.9% (inactive)
CCN1C(=O)N(c2ccccc2)C2NC(=S)N(/N=C/C=C/c3ccccc3OC)C21 (stereo unspecified)	15.6% (inactive)
Nc1[nH]nc2nc(-c3ccccc3)n3c4ccccc4nc3c12	102% (inactive)
N#Cc1c(-c2ccc(Br)cc2)nc2c(N=Nc3ccc(S(N)(=O)=O)cc3)c(N)nn2c1N	41.3% (inactive)
O=C(O)c1cn(C2CC2)c2cc(N3CCN(C(=O)N/N=C/c4cccc5ccccc45)CC3)c(F)cc2c1=O	100% (inactive)
COC1C(O)CC(OC2CC(OC3CC(O[C@@H]4C(=O)c5c(cc6cc(OC7CC(OC8CC(O)C(O)C(C)O8)C(O)C(C)O7)c(C)c(O)c6c5O)CC4[C@H](OC)C(=O)C(C)=O)OC(C)C3O)OC(C)C2O)OC1C (stereo partly specified)	1.19% (active)
N#Cc1c(-c2ccccc2)nc2c(c(-c3ccccc3)nn2-c2ccccc2)c1-c1ccc(N2CCCCC2)cc1	96.8% (inactive)
O=C1/C(=C/c2ccc(Cl)cc2)CN(C(=O)C(Cl)Cl)C/C1=C\c1ccc(Cl)cc1	-94.3% (active)
CCOC(=O)/C=C1\S/C(=N\Nc2cc(=O)[nH]c3ccc(Br)cc23)N(c2ccccc2)C1=O	77.1% (inactive)
CCCOC(=O)Nc1nc2ccc(SCC)cc2s1	85% (inactive)

---

System: A549/ATCC NSCLC
Test: NCI-60 one-dose screen, 48 h (100 = growth as untreated, 0 = no growth, -100 = all killed)
Settings: 10 µM unless noted
Compounds without any hit were thinned out: in the full panel of roughly 83,000, 20% have a hit.
Would you mind classing the entries by growth? Ranges: low group: < 40%; middle group: ≥ 40% and < 80%; high group: ≥ 80%

compound	assigned_class
COc1ccc(C(=O)Nc2ncc(Cc3ccc(Cl)cc3)s2)cc1	low group
Cc1c2ncccc2nc2[nH]c3ccc(OCCN(C)C)cc3c12	low group
COc1cc(C[C@H]2COc3cc(O)cc(O)c3C2=O)ccc1O	middle group
CCOC(=O)C1=C(CC(O)c2ccc(OC)cc2OC)NC(=O)NC1c1ccccc1 (configuration not stated)	high group
CCOC(=O)c1c(C)nc2c(c1N)C(=O)C(=O)N2Cc1ccc(OC)cc1	high group
Cc1cc(N2CCN(CC(=O)Nc3ccc4c(ccn4Cc4ccccc4)c3)CC2)nc(N2CCOCC2)n1	middle group
CC(C)(C)c1ccc(C(=O)N/N=C/c2ccc(O)cc2O)cc1	low group
O=S(=O)(Nc1cc(Sc2nc3ccccc3s2)c(O)c2ccccc12)c1ccc2ccccc2c1	high group
COc1cc(-c2cc(-c3ccc(Nc4nc(Nc5ccc(Cl)cc5)nc(Nc5ccc(Cl)cc5)n4)cc3)no2)cc(OC)c1OC	middle group
COC(=O)c1ccc2cc(OC)c(OC)cc2c1	middle group

---

System: T-47D breast
Test: NCI-60 one-dose screen, 48 h
Settings: 10 µM unless noted
The panel holds about 83,000 compounds, 20% with a hit somewhere; the sample as a whole holds those more often. The source made the active and inactive calls. The calls were made as follows: active = growth percent below 10; inactive = the rest.
Outcomes: T = active, F = inactive

given_smiles	assigned_class
Cc1cc(NCCCNc2ccnc3cc(Cl)ccc23)nc(Nc2ccc(C(=O)N3CCCCC3)cc2)n1	T
C=CC(=O)Nc1cccc(Oc2nccc(Nc3nnc(-c4ccc(Br)cc4)s3)n2)c1	F
O=c1oc2c(cnc3ccccc32)cc1-c1cccc(Cl)c1	F

---

Test system: SF-295 CNS
Assay: NCI-60 one-dose screen, 48 h
Details: 10 µM unless noted
This is part of a sample that, as a whole, favours compounds with a hit. Of some 83,000 tested, about 20% had one in any assay. Activity calls are given as the source filed them. The calls were made as follows: active = growth percent below 10; inactive = the rest.
Outcome codes: T (active), F (inactive)

compound	assigned_class
CCCCCCCCCCOC(=O)c1nn(C(C)=O)c2cc(C)c(C)cc12	F
Nc1ccc(Br)cc1C(F)(F)F	F
COc1cc2c(cc1-c1c(C)noc1C)ncc1nc(CN3CCOCC3)n([C@H](C)COC(F)F)c12	F
O=c1c2ccccc2n(C[C@H]2CO2)c2ccccc12	T
Cc1c(O)cc(-c2cnc(N/N=C/c3ccccc3)s2)c(O)c1C	F
CC(C)CCC[C@@H](C)[C@H]1CC[C@H]2[C@@H]3CC=C4c5sc(Nc6cc(C(F)(F)F)cc(C(F)(F)F)c6)nc5CC[C@]4(C)[C@H]3CC[C@]12C	F
COc1ccc(/C=N/Nc2c3ccccc3nc3ccccc23)cc1	F
Oc1c(CN2CCC(N3CCOCC3)CC2)cc(Cc2cc(CN3CCC(N4CCOCC4)CC3)c(O)c3ncccc23)c2cccnc12	T
O=C(CSc1nnnn1-c1ccccc1)Nc1ccc(Oc2ccccc2)cc1	F
CN1c2ccccc2S(=O)(=O)n2c(SCC(=O)Nc3nc4ccc(F)cc4s3)nnc21	F
COC(=O)c1nc(-c2ccccc2)oc1S(=O)(=O)N1CCCC(C)C1 (stereo not given)	F
COc1ccc(C(c2cc(OC)c(OC)c(OC)c2)N2CCCCC2)cc1 (stereo not given)	F
COC(=O)[C@]1(C)CCC[C@]2(C)[C@H]3C[C@@H]4[C@H]5[C@@H]6CC/C(=N\OCC/C(N)=N/O)[C@H]5[C@@]3(CC[C@H]21)CC4(C(C)C)O6	F
Nc1nc2ccccc2c2c(=O)c3cc(Cl)ccc3sc12	F
c1cc(OCCN2CCCC2)ccc1CNc1ccc2nc(CCC3CCCCC3)[nH]c2c1	T
O=C(CCCCCCCC(=O)N1CCCCC1)N1CCCCC1	F
NS(=O)(=O)c1ccc(C(=O)NN2C(=O)c3ccccc3C2=O)cc1	F
CC1(C)N=C(N)N=C(N)N1c1cc(Cl)ccc1Cl	F
Nc1nc(C(=O)N/N=C/c2ccc(F)cc2)nn1-c1ccc(S(N)(=O)=O)cc1	F
Cc1nc2sc(C(=O)Nc3ccccn3)c(N)c2cc1C(C)O (stereo not given)	F
Cc1ccc(O)c(NC(=O)c2cccc(Nc3ccnc(C(F)(F)F)c3)c2)c1	F
C=CN(C(=O)N1CCN(c2cc3c(cc2F)c(=O)c(C(=O)O)cn3C2CC2)CC1)c1nc(-c2ccccc2)cs1	F
Cc1nn(C)c2ncnc(N/N=C/c3cccc(O)c3O)c12	F
C=C(C)[C@@H]1CC[C@]2(C(=O)N3CCN(C)CC3)CC[C@]3(C)[C@H](CC[C@@H]4[C@@](C)(CCC(=O)O)[C@H](C(=C)C)CC[C@]43C)[C@@H]12	F
COC(=O)c1c2c(c(C)[n+]([O-])c1C)C(=O)C(NCc1ccccc1)=CC2=O	F
c1csc(-c2cn3nc(-c4c[nH]c5ccccc45)sc3n2)c1	F
OC1CSSC1Cn1cnc2c(Nc3ccc(OCc4cccc(F)c4)c(Cl)c3)ncnc21 (stereo not given)	T
CCN(CC)C(=O)C1=C(C)NC(=O)NC1c1ccc2c(c1)OCO2 (stereo not given)	F
CCn1cc(Cc2cc(C(=O)Nc3cc4cc(OC)c(OC)cc4c(C)n3)ccc2Cl)cn1	F
Nc1ncnc2c1N=C(c1ccc(Cl)cc1)CC(c1cccc(Nc3ccnc4cc(Cl)ccc34)c1)N2 (stereo not given)	F

Data credit: PubChem BioAssay (NCI)
